Sourced from patent US20240197869A1

# Tested on: human monocyte-derived dendritic cells (moDCs)
# test: Lipid titration: viability of human moDCs (CellTiter-Glo)
# recorded conditions: 10.3 μM lipid + LPS 1 μg/mL, 2 days; relative to LPS-treated moDCs; Table 1-5

>  <molecule>
CCCCCCCCCCCC(=O)OC[C@@H](O)COP(=O)([O-])OCC[N+](C)(C)C [12:0 LYSO PC]

>  <tested system>
human monocyte-derived dendritic cells (moDCs)

>  <Relative Viability (%) ± SD>
97.3

$$$$
>  <molecule>
CCCCCCCCCCCCCCCCCCCCCC(=O)OC[C@@H](O)COP(=O)([O-])OCC[N+](C)(C)C [22:0 LYSO PC]

>  <tested system>
human monocyte-derived dendritic cells (moDCs)

>  <Relative Viability (%) ± SD>
89.1

$$$$
>  <molecule>
CCCCCCCCCCCCCCCC(=O)OC[C@H](COP(=O)([O-])OCC[N+](C)(C)C)OC(=O)CCCC(=O)O [PGPC, reference compound]

>  <tested system>
human monocyte-derived dendritic cells (moDCs)

>  <Relative Viability (%) ± SD>
98.5

$$$$
>  <molecule>
CCCCCCCCCC(=O)OC[C@@H](O)COP(=O)([O-])OCC[N+](C)(C)C [10:0 LYSO PC]

>  <tested system>
human monocyte-derived dendritic cells (moDCs)

>  <Relative Viability (%) ± SD>
100.5

$$$$
>  <molecule>
CCCCCCCCCCCCCCCCCCC(=O)OC[C@@H](O)COP(=O)([O-])OCC[N+](C)(C)C [19:0 LYSO PC]

>  <tested system>
human monocyte-derived dendritic cells (moDCs)

>  <Relative Viability (%) ± SD>
96.4

$$$$
>  <molecule>
CCCCCCCCCCCCCCCC(=O)OC[C@H](COP(=O)([O-])OCC[N+](C)(C)C)OC(=O)CCCC=O [POVPC, reference compound]

>  <tested system>
human monocyte-derived dendritic cells (moDCs)

>  <Relative Viability (%) ± SD>
97.3

$$$$
>  <molecule>
CCCCCCCCCCCCCCCC(=O)OC[C@H](COP(=O)([O-])OCC[N+](C)(C)C)OC(=O)CCCCCCCC(=O)O [PAzePC, reference compound]

>  <tested system>
human monocyte-derived dendritic cells (moDCs)

>  <Relative Viability (%) ± SD>
98.0

$$$$
>  <molecule>
CCCCCCCCCCCCCCCCCCCCCCCC(=O)OC[C@@H](O)COP(=O)([O-])OCC[N+](C)(C)C [24:0 LYSO PC]

>  <tested system>
human monocyte-derived dendritic cells (moDCs)

>  <Relative Viability (%) ± SD>
96.8

$$$$
